tested on: Streptococcus pneumoniae; assay: MIC value was measured against streptococcus pneumoniae park1; type: functional
measurement_name: MIC (µg/mL)

[
  {
    "compound": "CC[C@H]1OC(=O)[C@H](C)[C@@H](OC2CC(C)(OC)C(O)C(C)O2)[C@H](C)[C@@H](OC2OC(C)CC(N(C)C)C2O)[C@](C)(O)C[C@@H](C)[C@H]2[C@H](C)[C@@H](OCN2C2CCCC2)[C@]1(C)O (some centres undefined)",
    "MIC / µg/mL": 0.06
  }
]

1 = CCCN1C(C)O[C@@H]2[C@@H](C)[C@@H]1[C@H](C)C[C@@](C)(O)[C@H](OC1OC(C)CC(N(C)C)C1O)[C@@H](C)[C@H](OC1CC(C)(OC)C(O)C(C)O1)[C@@H](C)C(=O)O[C@H](CC)[C@@]2(C)O (some centres undefined)
2 = CC[C@H]1OC(=O)[C@H](C)[C@@H](OC2CC(C)(OC)C(O)C(C)O2)[C@H](C)[C@@H](OC2OC(C)CC(N(C)C)C2O)[C@](C)(O)C[C@@H](C)[C@@H]2NC(COCCOC)O[C@H]([C@H]2C)[C@]1(C)O (some centres undefined)
3 = CCC1N[C@@H]2[C@H](C)[C@@H](O1)[C@](C)(O)[C@@H](CC)OC(=O)[C@H](C)[C@@H](OC1CC(C)(OC)C(O)C(C)O1)[C@H](C)[C@@H](OC1OC(C)CC(N(C)C)C1O)[C@](C)(O)C[C@H]2C (some centres undefined)
In: Hi! Can you put these in order of MIC, lowest number first? Please list the labels according to the requested order.
Out: 1, 2, 3
(1: 0.015 µg/mL, 2: 0.06 µg/mL, 3: 0.12 µg/mL)

----------
test system: Streptococcus pneumoniae; assay: MIC value measured against streptococcus pneumoniae Park1; type: functional
measurement_name: MIC (µg/mL)

Answered cases to consult:
[
  {
    "molecule": "CC[C@H]1OC(=O)[C@H](C)[C@@H](OC2CC(C)(OC)C(O)C(C)O2)[C@H](C)[C@@H](OC2OC(C)CC(N(C)C)C2O)[C@](C)(O)C[C@@H](C)[C@H](NCCCSC)[C@H](C)[C@@H](O)[C@]1(C)O (stereo not given in full)",
    "system_name": "Streptococcus pneumoniae",
    "unit_of_measurement": "µg/mL",
    "MIC": 0.015
  },
  {
    "molecule": "CCC(CC)CN[C@@H]1[C@H](C)[C@@H](O)[C@](C)(O)[C@@H](CC)OC(=O)[C@H](C)[C@@H](OC2CC(C)(OC)C(O)C(C)O2)[C@H](C)[C@@H](OC2OC(C)CC(N(C)C)C2O)[C@](C)(O)C[C@H]1C (stereo not given in full)",
    "system_name": "Streptococcus pneumoniae",
    "unit_of_measurement": "µg/mL",
    "MIC": 0.015
  },
  {
    "molecule": "CC[C@H]1OC(=O)[C@H](C)[C@@H](OC2CC(C)(OC)C(O)C(C)O2)[C@H](C)[C@@H](OC2OC(C)CC(N(C)C)C2O)[C@](C)(O)C[C@@H](C)[C@H](NC2CCCCC2)[C@H](C)[C@@H](O)[C@]1(C)O (stereo not given in full)",
    "system_name": "Streptococcus pneumoniae",
    "unit_of_measurement": "µg/mL",
    "MIC": 0.03
  },
  {
    "molecule": "CC[C@H]1OC(=O)[C@H](C)[C@@H](OC2CC(C)(OC)C(O)C(C)O2)[C@H](C)[C@@H](OC2OC(C)CC(N(C)C)C2O)[C@](C)(O)C[C@@H](C)[C@H](NCCCOC)[C@H](C)[C@@H](O)[C@]1(C)O (stereo not given in full)",
    "system_name": "Streptococcus pneumoniae",
    "unit_of_measurement": "µg/mL",
    "MIC": 0.03
  },
  {
    "molecule": "CCCN[C@@H]1[C@H](C)[C@@H](O)[C@](C)(O)[C@@H](CC)OC(=O)[C@H](C)[C@@H](OC2CC(C)(OC)C(O)C(C)O2)[C@H](C)[C@@H](OC2OC(C)CC(N(C)C)C2O)[C@](C)(O)C[C@H]1C (stereo not given in full)",
    "system_name": "Streptococcus pneumoniae",
    "unit_of_measurement": "µg/mL",
    "MIC": 0.015
  },
  {
    "molecule": "CC[C@H]1OC(=O)[C@H](C)[C@@H](OC2CC(C)(OC)C(O)C(C)O2)[C@H](C)[C@@H](OC2OC(C)CC(N(C)C)C2O)[C@](C)(O)C[C@@H](C)[C@H](NC(C)CCCN(CC)CC)[C@H](C)[C@@H](O)[C@]1(C)O (stereo not given in full)",
    "system_name": "Streptococcus pneumoniae",
    "unit_of_measurement": "µg/mL",
    "MIC": 0.5
  }
]

I = CC[C@H]1OC(=O)[C@H](C)[C@@H](OC2CC(C)(OC)C(O)C(C)O2)[C@H](C)[C@@H](OC2OC(C)CC(N(C)C)C2O)[C@](C)(O)C[C@@H](C)/C(=N\O)[C@H](C)[C@@H](O)[C@H]1C (stereo not given in full)
II = CC[C@H]1OC(=O)[C@H](C)[C@@H](OC2CC(C)(OC)C(O)C(C)O2)[C@H](C)[C@@H](OC2OC(C)CC(N(C)C)C2O)[C@](C)(O)C[C@@H](C)[C@H](NCCC(C)C)[C@H](C)[C@@H](O)[C@]1(C)O (stereo not given in full)
III = CCCCCCCCN[C@@H]1[C@H](C)[C@@H](O)[C@](C)(O)[C@@H](CC)OC(=O)[C@H](C)[C@@H](OC2CC(C)(OC)C(O)C(C)O2)[C@H](C)[C@@H](OC2OC(C)CC(N(C)C)C2O)[C@](C)(O)C[C@H]1C (stereo not given in full)
IV = CC[C@H]1OC(=O)[C@H](C)[C@@H](OC2CC(C)(OC)C(O)C(C)O2)[C@H](C)[C@@H](OC2OC(C)CC(N(C)C)C2O)[C@](C)(O)C[C@@H](C)[C@H](NC(C)C)[C@H](C)[C@@H](O)[C@]1(C)O (stereo not given in full)
V = CCCCCCCCCCCCN[C@@H]1[C@H](C)[C@@H](O)[C@](C)(O)[C@@H](CC)OC(=O)[C@H](C)[C@@H](OC2CC(C)(OC)C(O)C(C)O2)[C@H](C)[C@@H](OC2OC(C)CC(N(C)C)C2O)[C@](C)(O)C[C@H]1C (stereo not given in full)
In: # desc sort on MIC across 5 molecules Labels, ranked as asked.
Out: IV, V, II, III, I
(IV: 0.12 µg/mL, V: 0.06 µg/mL, II: 0.03 µg/mL, III: 0.015 µg/mL, I: 0.008 µg/mL)
